Reference source: patent US9527850B2

Molecular target: LPA2 receptor (LPA2R) (Homo sapiens, UniProt Q9HBW0)
Sequence (Q9HBW0 whole entry): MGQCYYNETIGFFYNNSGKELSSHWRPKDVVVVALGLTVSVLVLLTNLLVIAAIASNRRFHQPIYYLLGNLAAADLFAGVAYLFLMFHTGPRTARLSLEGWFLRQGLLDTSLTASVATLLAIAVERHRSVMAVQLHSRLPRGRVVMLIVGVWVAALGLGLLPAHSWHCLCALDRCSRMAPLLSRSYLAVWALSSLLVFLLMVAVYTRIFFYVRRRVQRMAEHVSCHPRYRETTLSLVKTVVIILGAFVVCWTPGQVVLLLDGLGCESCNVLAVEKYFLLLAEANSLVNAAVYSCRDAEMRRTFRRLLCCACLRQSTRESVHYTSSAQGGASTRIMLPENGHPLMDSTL
Assay: LPA2R-Calciumflux assay (intracellular calcium mobilisation, FLIPR)
Details: U2OS cells recombinant expressing LPA2R; inhibition of LPA-induced Ca-flux; 10 concentrations 30 uM to 1 nM, 1% DMSO
Experimental: The assay detects intra cellular calcium which is generated by cells upon activation of the LPA2 receptor by its ligand LPA. This transient calcium mobilization can be monitored using a commercial calcium detection kit (e.g. from Molecular Devices). The main component of such a kit is a dye, which becomes fluorescent when calcium is present—a transient fluorescence signal after laddition of a ligand to a test well are the result. […] The signals are calculated according to peak maximum minus base line. […]
Exercise: for every item that follows, state its recorded IC50.

Below, each entry is followed by its recorded IC50 result.
compound	IC50
COc1cccc(CN2CCCCC2c2cc3ccccc3[nH]2)c1 (stereo not drawn)	< 500 nM
Cc1ccc(CN2CCCCC2c2nc3ccc(Br)cc3[nH]2)cc1C (stereo not drawn)	< 500 nM
COc1cccc(CN2C(C)CCCC2c2cc3cc(F)ccc3[nH]2)c1 (stereo not drawn)	< 500 nM
Cc1ccc(CN2CCCCC2c2nc3cc(C)c(Cl)cc3[nH]2)cc1C (stereo not drawn)	< 500 nM
Cc1ccc(CN2CCCC[C@@H]2c2cc3ccccc3[nH]2)cc1	< 500 nM

Batch: IC50 for all items listed.
1. CC1CCCC(c2cc3cc(F)ccc3[nH]2)N1Cc1ccc(F)cc1F (stereo not drawn)
2. COc1ccc(CN2CCCCC2c2cc3ccccc3o2)cc1 (stereo not drawn)
3. Fc1ccc(CN2CCCCC2c2nc3cc(F)ccc3[nH]2)cc1 (stereo not drawn)
4. Cc1ccc(CN2CCCCC2c2nc3cc(F)ccc3n2C)cc1C (stereo not drawn)

500 to 5000 nM
500 to 5000 nM
< 500 nM
500 to 5000 nM

----------
Target: LPA2 receptor (LPA2R) (Homo sapiens, UniProt Q9HBW0)
Experiment: LPA2R-Calciumflux assay (intracellular calcium mobilisation, FLIPR)
Conditions: U2OS cells recombinant expressing LPA2R; inhibition of LPA-induced Ca-flux; 10 concentrations 30 uM to 1 nM, 1% DMSO
pIC50: −log10 of the molar value.
measurement.label: pIC50

I would be grateful if you could provide pIC50 for each of the following entries.
1. COc1cccc(CN2CC(C)CCC2c2cc3cc(F)ccc3[nH]2)c1 (centres unmarked)
2. Fc1ccc(CN2CCCCC2c2nc3cccnc3[nH]2)cc1 (centres unmarked)

1: 4.82 to 5.30; 2: > 6.30

----------
Target: LPA2 receptor (LPA2R) (Homo sapiens)
Assay: LPA2R-Calciumflux assay (intracellular calcium mobilisation, FLIPR)
Conditions: U2OS cells recombinant expressing LPA2R; inhibition of LPA-induced Ca-flux; 10 concentrations 30 uM to 1 nM, 1% DMSO
I'd appreciate it if you could supply IC50 values for the items below.

Answered examples (2):
compound	IC50
Cc1ccc(CN2C(C)CCCC2c2cc3ccccc3[nH]2)cc1C (stereo not shown) [compound 27]	< 500 nM
COc1cccc(CN2CCCCC2c2cc3cc(F)ccc3[nH]2)c1 (stereo not shown) [compound 109]	< 500 nM

Please give IC50, item by item, for the list that follows.
1. Cn1nc(CN2CCCCC2c2cc3cc(F)ccc3[nH]2)c2ccccc21 (stereo not shown) [compound 110]
2. Cc1ccc(CN2CCCCC2c2nc3cc(F)ccc3[nH]2)cc1C (stereo not shown) [compound 51]
3. CCc1nc(CN2CCCCC2c2nc3cc(F)ccc3[nH]2)cs1 (stereo not shown) [compound 121]
4. Cc1ccc2c(c1)c(CN1CCCCC1c1cc3cc(F)ccc3[nH]1)cn2C (stereo not shown) [compound 65]

1. < 500 nM
2. < 500 nM
3. < 500 nM
4. 500 to 5000 nM

----------
Target: LPA2 receptor (LPA2R) (Homo sapiens, UniProt Q9HBW0)
Test: LPA2R-Calciumflux assay (intracellular calcium mobilisation, FLIPR)
Details: U2OS cells recombinant expressing LPA2R; inhibition of LPA-induced Ca-flux; 10 concentrations 30 uM to 1 nM, 1% DMSO
What IC50 was measured for each of the following?

compound	measured.value
Cc1cc(Cl)cc2nc(C3CCCCN3Cc3cccc(C(F)(F)F)c3)[nH]c12 (centres unmarked)	500 to 5000 nM

// each listed compound needs a value for IC50
1. Cc1ccc(CN2CCCCC2c2cc3ccccc3[nH]2)cc1 (centres unmarked)
2. CC1(C)CCC(C)(C)c2cc(CN3CCCCC3c3nc4ccc(S(N)(=O)=O)cc4[nH]3)ccc21 (centres unmarked)
3. Fc1ccc2[nH]c(C3CCCCN3CCc3ccccc3)nc2c1 (centres unmarked)
4. Cc1cc(Cl)cc2nc(C3CCCCN3Cc3ccc4c(c3)C(C)(C)CCC4(C)C)[nH]c12 (centres unmarked)
5. Fc1ccc(CN2CCCCC2c2cc3ccccc3[nH]2)cc1 (centres unmarked)

["< 500 nM", "500 to 5000 nM", "500 to 5000 nM", "500 to 5000 nM", "< 500 nM"]

I have 5 compounds here; please give me IC50 for each one.
1. Fc1ccc(CN2CCCC[C@@H]2c2cc3cc(F)ccc3[nH]2)cc1
2. Fc1ccc(CN2CCCC[C@H]2c2nc3cc(F)ccc3[nH]2)cc1
3. Cc1ccc(CN2CCCCC2c2cc3cc(F)ccc3[nH]2)cc1 (centres unmarked)
4. Cc1ccc(CN2CCCCC2c2nc3cc(Cl)cc(C)c3[nH]2)cc1C (centres unmarked)
5. COc1cccc(CN2CCCCC2c2cc3cc(C)ccc3[nH]2)c1 (centres unmarked)

["< 500 nM", "500 to 5000 nM", "< 500 nM", "500 to 5000 nM", "500 to 5000 nM"]

----------
Target: LPA2 receptor (LPA2R) (Homo sapiens, UniProt Q9HBW0)
Construct: expressed in transfected cells; host or cells: U2OS
Test: LPA2R-Calciumflux assay (intracellular calcium mobilisation, FLIPR)
Assay type: cell-based
Conditions: U2OS cells recombinant expressing LPA2R; inhibition of LPA-induced Ca-flux; 10 concentrations 30 uM to 1 nM, 1% DMSO
pIC50: −log10 of the molar value.
Give pIC50 for every item shown.

Reference set, count: 2
molecule	pIC50
N#Cc1ccc(CN2CCCCC2c2cc3ccccc3[nH]2)cc1 (stereo not drawn)	4.82 to 5.30
Fc1ccc(CN2CCCCC2c2cc3cccnc3[nH]2)cc1 (stereo not drawn)	5.30 to 6.30

Let us examine a further case.
So for Cc1ccc(CN2C(C)CCCC2c2cc3cc(F)ccc3[nH]2)cc1 (stereo not drawn) , the logged pIC50 turned out to be 5.30 to 6.30

----------
Target: LPA2 receptor (LPA2R) (Homo sapiens, UniProt Q9HBW0)
Test: LPA2R-Calciumflux assay (intracellular calcium mobilisation, FLIPR)
Details: U2OS cells recombinant expressing LPA2R; inhibition of LPA-induced Ca-flux; 10 concentrations 30 uM to 1 nM, 1% DMSO
pIC50: −log10 of the molar value.
Field: pIC50. Provide a value for each of the compounds that follow.

The cases that follow already have their pIC50 on record.
compound	target	measured.value
CC1CCCC(c2cc3cc(F)ccc3[nH]2)N1Cc1ccc(S(C)(=O)=O)cc1 (stereo not shown)	LPA2 receptor (LPA2R) (Homo sapiens, UniProt Q9HBW0)	5.30 to 6.30
Cc1cccc(CN2CCCCC2c2nc3cc(C)c(Cl)cc3[nH]2)c1 (stereo not shown)	LPA2 receptor (LPA2R) (Homo sapiens, UniProt Q9HBW0)	> 6.30
COc1ccccc1CN1C(C)CCCC1c1cc2cc(F)ccc2[nH]1 (stereo not shown)	LPA2 receptor (LPA2R) (Homo sapiens, UniProt Q9HBW0)	5.30 to 6.30
COc1ccc(CN2CCCC(C)C2c2cc3c4c(ccc3[nH]2)CCC4)cc1 (stereo not shown)	LPA2 receptor (LPA2R) (Homo sapiens, UniProt Q9HBW0)	4.82 to 5.30
Cc1ccc(CN2CCCCC2c2cc3ccccc3o2)cc1C (stereo not shown)	LPA2 receptor (LPA2R) (Homo sapiens, UniProt Q9HBW0)	5.30 to 6.30

Look at each compound and report its pIC50.
1. CC(c1ccccc1)N1CCCCC1c1nc2cc(F)ccc2[nH]1 (stereo not shown)
2. Cc1ccc(CN2CCCCC2c2nc3cc(Cl)cnc3[nH]2)cc1C (stereo not shown)
3. FC(F)(F)c1cccc(CN2CCCCC2c2nc3ccc(Br)cc3[nH]2)c1 (stereo not shown)
4. Cc1ccc(CN2CCCCC2c2nc3ccc(Cl)cc3[nH]2)cc1C (stereo not shown)
5. Cc1ccc(CN2CCCC[C@@H]2c2cc3cc(F)ccc3[nH]2)cc1C
6. Fc1ccc2[nH]c(C3CCCCN3Cc3cccc(Cl)c3Cl)cc2c1 (stereo not shown)

1: 5.30 to 6.30; 2: > 6.30; 3: 5.30 to 6.30; 4: > 6.30; 5: > 6.30; 6: 5.30 to 6.30

Batch: pIC50 for all items listed.
1. Cc1cccc(CN2CCCCC2c2nc3cc(Cl)cc(C)c3[nH]2)c1 (stereo not shown)
2. CC1CCCC(c2cc3cc(F)ccc3[nH]2)N1Cc1ccc(Cl)cc1 (stereo not shown)
3. CC1CCCN(Cc2ccc(F)cc2)C1c1cc2ccccc2[nH]1 (stereo not shown)
4. CC1CCCC(c2cc3cc(F)ccc3[nH]2)N1Cc1cccc([N+](=O)[O-])c1 (stereo not shown)
5. Cn1cc(CN2CCCCC2c2cc3ccccc3[nH]2)c2ccccc21 (stereo not shown)
6. CC1CCCC(c2cc3cc(F)ccc3[nH]2)N1Cc1ccc(F)cc1 (stereo not shown)
7. CC1(C)CCC(C)(C)c2cc(CN3CCCCC3c3nc4ccc(Br)cc4[nH]3)ccc21 (stereo not shown)
8. Fc1ccc(CN2CCCC[C@H]2c2cc3ccccc3[nH]2)cc1

5.30 to 6.30
5.30 to 6.30
5.30 to 6.30
5.30 to 6.30
5.30 to 6.30
> 6.30
4.82 to 5.30
5.30 to 6.30
